TARGET OR TEST SYSTEM: T1, LuxR (Vibrio harveyi, UniProt P21308 1-205)
T1 sequence: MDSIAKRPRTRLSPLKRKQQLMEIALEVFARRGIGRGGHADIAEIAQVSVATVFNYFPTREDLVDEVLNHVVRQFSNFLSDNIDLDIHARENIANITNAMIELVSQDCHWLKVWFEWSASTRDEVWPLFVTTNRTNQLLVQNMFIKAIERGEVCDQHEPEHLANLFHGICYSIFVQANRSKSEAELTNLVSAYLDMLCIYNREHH
ASSAY NAME: fluorescence anisotropy
REPORTED METRIC: Kd (µM)

1. VP0944/5 (dsDNA) DNA 1: TAGAGTTAGTATCAATTTAATCAATAAGATA DNA 2: TATCTTATTGATTAAATTGATACTAACTCTA: 0.03
2. qrr4 A6C (dsDNA) DNA 1: CATTTTTCTGCTAAATGTATTAGTAGCAATG DNA 2: CATTGCTACTAATACATTTAGCAGAAAAATG: 0.068
3. qrr4 WT (dsDNA) DNA 1: CATTTTTCTGATAAATGTATTAGTAGCAATG DNA 2: CATTGCTACTAATACATTTATCAGAAAAATG: 0.035
4. VPA0197/8 (dsDNA) DNA 1: TAAGGTAAATAATTATTTTAACAATAATTAA DNA 2: TTAATTATTGTTAAAATAATTATTTACCTTA: 0.068
5. VPA0226/7 (dsDNA) DNA 1: ACCAAAATTGATAAAATGAATAATTAGATAT DNA 2: ATATCTAATTATTCATTTTATCAATTTTGGT: 0.073

All figures here come from paper PMC2628434.
